Data credit: ChEMBL document CHEMBL3988442

Attribute: Percent Effect
- TESTED SYSTEM: Tyrosyl-tRNA synthetase, putative (Trypanosoma cruzi (strain CL Brener)) (UniProt Q4DSP6)
- Sequence (whole entry): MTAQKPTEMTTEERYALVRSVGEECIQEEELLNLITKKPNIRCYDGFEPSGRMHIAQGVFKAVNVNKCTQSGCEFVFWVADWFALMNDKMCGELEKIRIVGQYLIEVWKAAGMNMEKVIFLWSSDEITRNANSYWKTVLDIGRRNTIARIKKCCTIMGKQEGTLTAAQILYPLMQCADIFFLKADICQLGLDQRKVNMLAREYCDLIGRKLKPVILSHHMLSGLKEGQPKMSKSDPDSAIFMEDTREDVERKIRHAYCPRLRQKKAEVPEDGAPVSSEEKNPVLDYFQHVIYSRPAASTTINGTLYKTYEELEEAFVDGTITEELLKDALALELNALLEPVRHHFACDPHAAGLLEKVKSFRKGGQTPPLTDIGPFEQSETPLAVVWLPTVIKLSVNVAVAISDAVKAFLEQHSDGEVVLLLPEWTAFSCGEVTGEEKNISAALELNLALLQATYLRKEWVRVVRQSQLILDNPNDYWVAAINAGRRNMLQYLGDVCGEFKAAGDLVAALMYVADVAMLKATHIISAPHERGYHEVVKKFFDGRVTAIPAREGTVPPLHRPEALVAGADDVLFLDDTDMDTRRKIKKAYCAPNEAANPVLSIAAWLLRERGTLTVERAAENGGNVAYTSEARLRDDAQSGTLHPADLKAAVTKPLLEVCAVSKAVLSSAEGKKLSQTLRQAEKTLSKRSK
- ASSAY PROCEDURE: Trypanosoma cruzi tyrosyl tRNA synthetase (TcYRS) _High Tyrosine SOP; further: in the data most compounds retested in dose-response had high values
- Format: functional
- Parameters: scale not given: direction of the effect not stated beside the values
- CONDITION NOTES: 30 µM

MOLECULE	TESTED SYSTEM	UOM	Percent Effect
Cc1nn(CC(C)C)c(N(C)C)c1CNCc1cccc2c1OCO2	Tyrosyl-tRNA synthetase, putative (Trypanosoma cruzi (strain CL Brener)) (UniProt Q4DSP6)	%	7.39
CC(=O)N1CCC(Oc2ccc(Cl)cn2)CC1	Tyrosyl-tRNA synthetase, putative (Trypanosoma cruzi (strain CL Brener)) (UniProt Q4DSP6)	%	3.23
O=C(c1ccc(Cl)o1)N1CCCC(c2cc(C(F)(F)F)[nH]n2)C1 (stereo unspecified)	Tyrosyl-tRNA synthetase, putative (Trypanosoma cruzi (strain CL Brener)) (UniProt Q4DSP6)	%	3.45
NC(=O)NCCC(=O)NCc1cccnc1N1CCc2ccccc2C1	Tyrosyl-tRNA synthetase, putative (Trypanosoma cruzi (strain CL Brener)) (UniProt Q4DSP6)	%	7.53
Cc1ccc(CC2CCCN2CC(=O)NCc2cccnc2)cc1 (stereo unspecified)	Tyrosyl-tRNA synthetase, putative (Trypanosoma cruzi (strain CL Brener)) (UniProt Q4DSP6)	%	4.25
CN(C)C(=O)N1C[C@@H]2CC[C@H](C1)N(Cc1ccc3nsnc3c1)C2	Tyrosyl-tRNA synthetase, putative (Trypanosoma cruzi (strain CL Brener)) (UniProt Q4DSP6)	%	0
CC(C)c1noc(C(C)N2CCN(CCO)CC2)n1 (stereo unspecified)	Tyrosyl-tRNA synthetase, putative (Trypanosoma cruzi (strain CL Brener)) (UniProt Q4DSP6)	%	5.42
Cc1cc(C)n(C2CN(CC(=O)N3CCOCC3)C2)n1	Tyrosyl-tRNA synthetase, putative (Trypanosoma cruzi (strain CL Brener)) (UniProt Q4DSP6)	%	10.4
CCc1ccc(C(=O)Nc2ccc(CC3CC(=O)NC3=O)cc2)cc1 (stereo unspecified)	Tyrosyl-tRNA synthetase, putative (Trypanosoma cruzi (strain CL Brener)) (UniProt Q4DSP6)	%	2.15
O=C(CC1CC1)NCc1cn2c(n1)CN(C(=O)c1cccnc1)CC2	Tyrosyl-tRNA synthetase, putative (Trypanosoma cruzi (strain CL Brener)) (UniProt Q4DSP6)	%	0
CNc1cc(N2CCCC2CNCc2ccccn2)ncn1 (stereo unspecified)	Tyrosyl-tRNA synthetase, putative (Trypanosoma cruzi (strain CL Brener)) (UniProt Q4DSP6)	%	11.9
CN(C)C1CCN(C(=O)NCc2ccc(Cn3cncn3)cc2)CC1	Tyrosyl-tRNA synthetase, putative (Trypanosoma cruzi (strain CL Brener)) (UniProt Q4DSP6)	%	5.82
O=C(c1cnco1)N1C[C@@H]2CC[C@H](Oc3ccccc3F)[C@@H]2C1	Tyrosyl-tRNA synthetase, putative (Trypanosoma cruzi (strain CL Brener)) (UniProt Q4DSP6)	%	-4.3
Cc1nccn1-c1cc(CNC(=O)CCNC(=O)C2CCCC2)ccn1	Tyrosyl-tRNA synthetase, putative (Trypanosoma cruzi (strain CL Brener)) (UniProt Q4DSP6)	%	8.37
COc1ccnc(N2CCN(CC(=O)N3CCOCC3)CC2)n1	Tyrosyl-tRNA synthetase, putative (Trypanosoma cruzi (strain CL Brener)) (UniProt Q4DSP6)	%	8.37
CCNC(=O)N(C)C(c1cccc(F)c1)c1ccccn1 (stereo unspecified)	Tyrosyl-tRNA synthetase, putative (Trypanosoma cruzi (strain CL Brener)) (UniProt Q4DSP6)	%	7.77

====

- TESTED SYSTEM: Tyrosyl-tRNA synthetase, putative (Trypanosoma cruzi (strain CL Brener)) (UniProt Q4DSP6)
- ASSAY PROCEDURE: Trypanosoma cruzi tyrosyl tRNA synthetase (TcYRS) _High Tyrosine SOP; further: in the data most compounds retested in dose-response had high values
- Assay type: functional
- Parameters: scale not given: direction of the effect not stated beside the values
- CONDITION NOTES: 30 µM
The entries below are paired with their reported Percent Effect.

COMPOUND	UOM	Percent Effect
CC(C)c1nc2n(n1)CC(NCc1nnc(-c3ccco3)o1)CC2 (stereo not given)	%	3.45
CCOc1cccc2c1OCC(C(=O)NS(=O)(=O)c1ccc(C)s1)=C2	%	-9.36
Cc1nc2cc(C(=O)N3CCCC(n4cncn4)C3)ccc2n1C (stereo not given)	%	3.96
CC(C)c1nccn1C1CCCN(C(=O)c2ccc3[nH]nnc3c2)C1 (stereo not given)	%	4.76
CC(C)CNC(=O)[C@H]1CCS(=O)(=O)[C@@H]2CN(Cc3cccc(Cl)c3)C[C@H]12	%	3.96
CSc1ccc(NS(=O)(=O)c2cnn(C)c2)cn1	%	4.17
Cc1cc(CN2CCCC2c2noc(C3CC3)n2)c2ccccc2n1 (stereo not given)	%	11.9
CC(=O)Nc1ccc(CNC2CC(=O)N(Cc3cccc(F)c3)C2)cc1 (stereo not given)	%	2.65
CO[C@H]1CCN(c2ccc(C)nn2)[C@H]1Cc1cnn(C)c1	%	9.9
O=C1CC(c2cccs2)c2cnn(C3CCCC3)c2N1 (stereo not given)	%	-2.73
CCn1cc(CN2CCCN(C(=O)c3ccn(C)c(=O)c3)CC2)cn1	%	10.5
COc1ccc(-n2cnnc2SCC(C)(C)O)cn1	%	3.83
CCC(C)c1noc(C2CCN(C(=O)c3cccnc3)CC2)n1 (stereo not given)	%	5.38
O=C(c1cc(=O)[nH]c(=O)[nH]1)N1CCCCC1c1nc2cc(F)ccc2[nH]1 (stereo not given)	%	3.16
Cc1cc(NC(=O)CN2CCn3c(nnc3C(C)C)C2)no1	%	5.71

====

- TESTED SYSTEM: Tyrosyl-tRNA synthetase, putative (Trypanosoma cruzi (strain CL Brener))
- ASSAY PROCEDURE: Trypanosoma cruzi tyrosyl tRNA synthetase (TcYRS) SOP
- Format: functional
- Design: scale not given: direction of the effect not stated beside the values
- CONDITION NOTES: 30 µM
Quick reference: Percent Effect of the listed items.
EXPERIMENTAL ENDPOINT: Percent Effect (%)

MOLECULE	TESTED SYSTEM	OBSERVED MEASUREMENT
COCC1CC2(CCN(C(=O)c3cc(C)oc3C)CC2)CN1C(C)C (stereo unspecified)	Tyrosyl-tRNA synthetase, putative (Trypanosoma cruzi (strain CL Brener))	15.8
COc1ccccc1CNC(=O)C1=NN(c2ccc(C)cc2)C(=O)CN1	Tyrosyl-tRNA synthetase, putative (Trypanosoma cruzi (strain CL Brener))	-3.7
Cc1cc(C)n(CC2CCCN2C(=O)CCc2cscn2)n1 (stereo unspecified)	Tyrosyl-tRNA synthetase, putative (Trypanosoma cruzi (strain CL Brener))	0
CC(C)c1nnc2n1CCN(CC(=O)Nc1nncs1)C2	Tyrosyl-tRNA synthetase, putative (Trypanosoma cruzi (strain CL Brener))	14.1
CNc1cc2c(nn1)CCN(C(=O)c1ccc(-n3nccc3C)cc1)C2	Tyrosyl-tRNA synthetase, putative (Trypanosoma cruzi (strain CL Brener))	9.41
O=C(Nc1cc(F)ccc1OCC1CCCO1)c1ccc(O)nc1 (stereo unspecified)	Tyrosyl-tRNA synthetase, putative (Trypanosoma cruzi (strain CL Brener))	14.1
Cc1ccc(C)n1-c1ccc(C(=O)NCCNc2ncccn2)cc1	Tyrosyl-tRNA synthetase, putative (Trypanosoma cruzi (strain CL Brener))	18.5
CCc1nc(CN2CCCN(C(=O)C(C)COC)CC2)cs1 (stereo unspecified)	Tyrosyl-tRNA synthetase, putative (Trypanosoma cruzi (strain CL Brener))	21.9
O=C(Nc1cnn(CCN2CCOCC2)c1)c1cc(F)ccc1F	Tyrosyl-tRNA synthetase, putative (Trypanosoma cruzi (strain CL Brener))	9.76
CCc1cc(N2CCCNCC2)n2nc(C)c(C)c2n1	Tyrosyl-tRNA synthetase, putative (Trypanosoma cruzi (strain CL Brener))	11.1
CNc1nc(C(=O)N2CCCC(c3nccn3CC3CCC3)C2)cs1 (stereo unspecified)	Tyrosyl-tRNA synthetase, putative (Trypanosoma cruzi (strain CL Brener))	-22.5
